Target: Brd4 bromodomain 1 (Homo sapiens, UniProt O60885)
Construct: made in house; host or cells: E. coli BL21(DE3)
Assay: Inhibition of binding of tetra-acetylated histone H4 and Brd4 bromodomain 1 by TR-FRET
Conditions: His-tagged bromodomain 200 nM, biotinylated tetra-acetylated histone H4 peptide 25-50 nM, 2 hours at room temperature
reported metric: FRET activity (<50 uM)

>>> df
                                   compound  result
0  COc1cc(OC)c2c(=O)[nH]c(-c3ccc(CCC(=O)O)cc3)nc2c1 [Example 48]  Active
1  COc1cc(OC)c2c(=O)[nH]c(-c3ccc(N4CCN(C)CC4)cc3)nc2c1 [Example 38]  Active
2  COc1cccc2nc(-c3cc(C)c(OCCO)c(C)c3)[nH]c(=O)c12 [Example 78]  Active

These measurements were taken from patent US20130281397A1.
